- targetEntity: T1, human CLDN18.2 (human)
- T1 construct: the HEK293 line was made with a GenScript plasmid; also called hCLDN18.2
- test: FACS on HEK293/hCLDN18.2 cells
Assignment: determine reported EC50 for the given binders.
Please give a number only; it is taken to be in nM.

Req: Return the recorded EC50 value; entry: PR000400 (antibody, human IgG1, kappa, V domains shown, also called IMAB362 analogue) VH: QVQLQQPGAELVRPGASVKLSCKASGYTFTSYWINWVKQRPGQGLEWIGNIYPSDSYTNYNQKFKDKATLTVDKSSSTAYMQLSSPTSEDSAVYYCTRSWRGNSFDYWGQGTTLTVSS VL: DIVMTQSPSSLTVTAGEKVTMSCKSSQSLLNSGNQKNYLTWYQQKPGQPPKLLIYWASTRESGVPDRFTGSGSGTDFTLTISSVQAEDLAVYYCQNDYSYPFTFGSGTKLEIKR
Resp: 5.6

Req: Provide measured EC50 value, entry: PR007246 (antibody, human IgG1, V domains shown, HCDR2 PTM-removal mutant of PR004533; HCAb, human IgG1 Fc; also called 4533_M3F10) VH: EVQLVESGGGLVQPGGSLRLSCAASGFTFSSYWMHWVRQVPGKGLVWVSRISSTGSRTIYADSVKGRFTISRDNAKNTLYLQMNSLRAEDTAVYYCARGEDHDILTGYPIRGQGTTVTVSS
Resp: 14.4

Req: Give recorded EC50. PR007248 (antibody, human IgG1, V domains shown, HCDR2 PTM-removal mutant of PR004533; HCAb, human IgG1 Fc; also called 4533_M10E7) VH: EVQLVESGGGLVQPGGSLRLSCAASGFTFSSYWMHWVRQVPGKGLVWVSRINHDSSRTIYADSVKGRFTISRDNAKNTLYLQMNSLRAEDTAVYYCARGEDHDILTGYPIRGQGTTVTVSS
Resp: 12.8

Req: Please report EC50 for the following binder: PR007247 (antibody, human IgG1, V domains shown, HCDR2 PTM-removal mutant of PR004536; HCAb, human IgG1 Fc; also called 4536_M8A6) VH: EVQLVESGGGLVQPGGSLRLSCAASGFTFSSYWMYWVRQVPGKGLVWVSHINPLGSTTQYADSVKGRFTISRDNAKNMLYLQMNSLRAEDTAVYYCARDFPVLGGSHFDFQHWGQGTLVTVSS
Resp: 35.3

// data source = patent US20250340631A1
